These data points were gathered from paper PMC12053642.

# PROCEDURE_TEXT: Pharmacokinetics of PRI-002 in plasma
# CONDITION_LABEL: human, plasma, po, 300 mg, Tmax, plasma, Day 1 (n=9), Mean ± SD; 300 mg q.d. oral; MCI/mild AD patients
Square brackets hold non-standard residues; d marks the D form. Peptide text beside a SMILES is read from it.
VALUE_TYPE: Tmax

Ask | Give its Tmax value. Item: CC(C)C[C@@H](NC(=O)[C@H](NC(=O)[C@H]1CCCN1)[C@H](C)O)C(=O)N[C@H](Cc1c[nH]cn1)C(=O)N[C@@H](C(=O)N[C@H](Cc1c[nH]cn1)C(=O)N[C@H](CC(N)=O)C(=O)N[C@H](CCCNC(=N)N)C(=O)N[C@H](CCCNC(=N)N)C(=O)N[C@H](CCCNC(=N)N)C(=O)N[C@H](CCCNC(=N)N)C(=O)N[C@H](CCCNC(=N)N)C(N)=O)[C@H](C)O [PRI-002] (H-[dP][dT][dL][dH][dT][dH][dN][dR][dR][dR][dR][dR]-NH2; N-terminus and C-terminus assumed)
Reply | 1.94 h

* * *

# PROCEDURE_TEXT: Pharmacokinetics of PRI-002 in plasma
# CONDITION_LABEL: human, plasma, po, 300 mg, AUC 0-4 hours, plasma, Day 28 (n=8), Mean ± SD; 300 mg q.d. oral; MCI/mild AD patients
Square brackets hold non-standard residues; d marks the D form. Peptide text beside a SMILES is read from it.
VALUE_TYPE: AUC(0-t) (ng·h/mL)
Kindly answer with a numeric value in ng·h/mL, unit omitted.

Ask | Give its AUC(0-t) value. Item: CC(C)C[C@@H](NC(=O)[C@H](NC(=O)[C@H]1CCCN1)[C@H](C)O)C(=O)N[C@H](Cc1c[nH]cn1)C(=O)N[C@@H](C(=O)N[C@H](Cc1c[nH]cn1)C(=O)N[C@H](CC(N)=O)C(=O)N[C@H](CCCNC(=N)N)C(=O)N[C@H](CCCNC(=N)N)C(=O)N[C@H](CCCNC(=N)N)C(=O)N[C@H](CCCNC(=N)N)C(=O)N[C@H](CCCNC(=N)N)C(N)=O)[C@H](C)O [PRI-002] (H-[dP][dT][dL][dH][dT][dH][dN][dR][dR][dR][dR][dR]-NH2; N-terminus and C-terminus assumed)
Reply | 26.8

* * *

# PROCEDURE_TEXT: Pharmacokinetics of PRI-002 in plasma
# CONDITION_LABEL: human, plasma, po, 300 mg, Tmax, plasma, Day 28 (n=8), Mean ± SD; 300 mg q.d. oral; MCI/mild AD patients
Square brackets hold non-standard residues; d marks the D form. Peptide text beside a SMILES is read from it.
VALUE_TYPE: Tmax

Ask | Give its Tmax value. Item: CC(C)C[C@@H](NC(=O)[C@H](NC(=O)[C@H]1CCCN1)[C@H](C)O)C(=O)N[C@H](Cc1c[nH]cn1)C(=O)N[C@@H](C(=O)N[C@H](Cc1c[nH]cn1)C(=O)N[C@H](CC(N)=O)C(=O)N[C@H](CCCNC(=N)N)C(=O)N[C@H](CCCNC(=N)N)C(=O)N[C@H](CCCNC(=N)N)C(=O)N[C@H](CCCNC(=N)N)C(=O)N[C@H](CCCNC(=N)N)C(N)=O)[C@H](C)O [PRI-002] (H-[dP][dT][dL][dH][dT][dH][dN][dR][dR][dR][dR][dR]-NH2; N-terminus and C-terminus assumed)
Reply | 1.1 h

* * *

# PROCEDURE_TEXT: Pharmacokinetics of PRI-002 in plasma
# CONDITION_LABEL: human, plasma, po, 300 mg, PRI-002 plasma level, Mean, Day 1, 0.5 h; n=9; 300 mg q.d. oral; MCI/mild AD patients
Square brackets hold non-standard residues; d marks the D form. Peptide text beside a SMILES is read from it.
VALUE_TYPE: level at 0.5 h (ng/mL)
Kindly answer with a numeric value in ng/mL, unit omitted.

Ask | Give its level at 0.5 h value. Item: CC(C)C[C@@H](NC(=O)[C@H](NC(=O)[C@H]1CCCN1)[C@H](C)O)C(=O)N[C@H](Cc1c[nH]cn1)C(=O)N[C@@H](C(=O)N[C@H](Cc1c[nH]cn1)C(=O)N[C@H](CC(N)=O)C(=O)N[C@H](CCCNC(=N)N)C(=O)N[C@H](CCCNC(=N)N)C(=O)N[C@H](CCCNC(=N)N)C(=O)N[C@H](CCCNC(=N)N)C(=O)N[C@H](CCCNC(=N)N)C(N)=O)[C@H](C)O [PRI-002] (H-[dP][dT][dL][dH][dT][dH][dN][dR][dR][dR][dR][dR]-NH2; N-terminus and C-terminus assumed)
Reply | 3.1
